test.summary: In Vitro Microsome Stability Assay (monkey)
Format: in vitro ADME
condition.notes: monkey, 30 min, NADPH
parameter: Liver Microsome Stability-% Left after 30 min w/ NADPH (%) Monkey

P. C=C1CN(S(=O)(=O)c2ccc(N(C)C)cc2)CCCN(CC2CCCCC2)CCCN(S(=O)(=O)N2CCN(c3cccc(Cl)c3)CC2)C1 [A84]
Q. CN(C)c1ccc(S(=O)(=O)N2CCCN(CC3CCCCC3)CCCN(S(=O)(=O)N3CCC(c4ccccc4)CC3)CCC2)cc1 [A42]
Lower value for measured Liver Microsome Stability-% Left after 30 min w/ NADPH (%) Monkey? Options: P , Q Answer with the label corresponding to your selection. Q
(Q: 0.81%, P: 65.8%)

Values were extracted from patent US11578055B2.
